Hi there, I'd appreciate the recorded inhibition at 1 µM for every entry that follows.
- tested_system: PDGFRb (Homo sapiens)
- Construct: The kinase domain of PDGFRβ was assayed in 50 mM Hepes; purchased Invitrogen P3082
- Sequence (P09619 600-962 limits assumed): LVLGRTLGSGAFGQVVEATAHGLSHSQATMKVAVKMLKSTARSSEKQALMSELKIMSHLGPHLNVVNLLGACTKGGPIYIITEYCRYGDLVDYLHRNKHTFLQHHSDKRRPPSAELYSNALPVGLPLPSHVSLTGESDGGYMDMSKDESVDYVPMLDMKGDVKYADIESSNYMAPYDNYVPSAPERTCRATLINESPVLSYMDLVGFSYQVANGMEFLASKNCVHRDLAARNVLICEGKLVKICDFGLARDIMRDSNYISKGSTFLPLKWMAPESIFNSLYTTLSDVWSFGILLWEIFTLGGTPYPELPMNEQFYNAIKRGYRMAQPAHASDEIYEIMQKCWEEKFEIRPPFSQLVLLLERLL
- experimental_details: Inhibition of PDGFRb kinase in an in vitro biochemical assay (alphascreen)
- cond: tested at about 1 μM; read-out: PDGFR % inhibition at 1 μM
Numbers only, in %.

Provide inhibition at 1 µM for all items below, preserving their order.
1. CNC(=O)c1cc(Oc2ccc3nc(OCC4CCCCC4)ncc3c2)ccn1
2. CNC(=O)c1cc(Oc2ccc3nc(NCC4CCCCC4)ncc3c2)ccn1
3. CNC(=O)c1cc(Oc2ccc3nc(N[C@H]4CCCC[C@@H]4O)ccc3c2)ccn1
4. CNC(=O)c1cc(Oc2ccc3nc(NC(=O)c4ccccc4)ncc3c2)ccn1
5. CNC(=O)c1cc(Oc2ccc3nc(Nc4ccccc4N4CCN(C)CC4)ncc3c2)ccn1

Reply:
1: 6; 2: 52; 3: 32; 4: 43; 5: 20

Ask: Param item = CNC(=O)c1cc(Oc2ccc3nc(Nc4ccccc4OC(C)C)ncc3c2)ccn1 ; retrieve measured inhibition at 1 µM.
Reply: 17
